The measured values listed here are drawn from ChEMBL document CHEMBL4689842.

tested on: Fibroblast; test: Multiplex assay against human fibroblast; assay type: toxicity, cell-based; conditions: 24 h, 10 µM, compound concentration 10 uM, replicate 1
Quick reference for Population Tubulin-Different-Phenotype (%) among some molecules
Output spec: scalar in %, unitless text.

molecule	measurement-target	observed-result
Cl.O=c1c2cccn2c2ccccc2n1CCCN1CCC(c2ccc(Cl)cc2)CC1	Fibroblast	63
Cn1nc(C(F)(F)F)cc1-c1cnc(N2CCc3cc(S(=O)(=O)Nc4c(F)cc(Cl)cc4F)cc(N4CCCC4=O)c32)nc1 [TP-020]	Fibroblast	2
Cc1cn(-c2cc(NC(=O)c3ccc(C)c(Nc4nccc(-c5cccnc5)n4)c3)cc(C(F)(F)F)c2)cn1 [NILOTINIB]	Fibroblast	2
CNc1cc(Oc2cc(C(=O)Nc3cc(N4CCN(C)CC4)cc(C(F)(F)F)c3)ccc2C)ncn1	Fibroblast	76
O=C1NC(=O)C(c2cnc3ccccn23)=C1c1cn2c3c(cc(F)cc13)CN(C(=O)N1CCCCC1)CC2 [LY-2090314]	Fibroblast	87
O=C(Nc1cccnn1)N1CCC(=Cc2cccc(Oc3ccc(C(F)(F)F)cn3)c2)CC1	Fibroblast	2
O=C(Nc1ccc(Cl)cc1)Nc1cccc(-c2cccc(N3CCCC3)n2)c1	Fibroblast	50
NC(=O)c1cccc(-c2cc(Nc3ccc(OC(F)(F)F)cc3)ncn2)c1	Fibroblast	11

Result for CCCS(=O)(=O)Nc1ccc(F)c(C(=O)c2c[nH]c3ncc(Cl)cc23)c1F [PLX-4720] , tested on Fibroblast, Population Tubulin-Different-Phenotype (%): 1

Result for Cl.Oc1ccc2c3c1O[C@H]1c4[nH]c5c(c4C[C@@]4(O)[C@@H](C2)N(CC2CC2)CC[C@]314)C[C@@]1(O)[C@H]2Cc3ccc(O)c4c3[C@@]1(CCN2CC1CC1)[C@H]5O4 , tested on Fibroblast, Population Tubulin-Different-Phenotype (%): 27

Result for COc1ccc(-c2ccc3c(N4CCOCC4)nc(N4C[C@@H](C)O[C@@H](C)C4)nc3n2)cc1CO [Ku-0063794] , tested on Fibroblast, Population Tubulin-Different-Phenotype (%): 7

====

Quick reference for Total Cell Count among some molecules
tested on: HEK-293T; assay: Multiplex assay against HEK293T; assay type: toxicity, cell-based; settings: human, 12 h, 10 µM, compound concentration 10 uM, replicate 2

> print(dat)
                                   molecule  observed.result
1  CCCn1c(=O)c2[nH]c(-c3cnn(Cc4cccc(C(F)(F)F)c4)c3)nc2n(CC)c1=O              325
2  CNc1cc(Oc2cc(C(=O)Nc3cc(N4CCN(C)CC4)cc(C(F)(F)F)c3)ccc2C)ncn1              127
3  Cc1ccc2nc(NCCN)c3ncc(C)n3c2c1.O=C(O)C(F)(F)F.O=C(O)C(F)(F)F             1004
4  CCOC(=O)c1c(C)[nH]c2ccc3c(c12)CN1CCc2cc(OC)ccc2C1O3 (stereo not drawn)              156
5  Cn1nc(C(F)(F)F)cc1-c1cnc(N2CCc3cc(S(=O)(=O)Nc4c(F)cc(Cl)cc4F)cc(N4CCCC4=O)c32)nc1             1658
6  Cl.O=c1c2cccn2c2ccccc2n1CCCN1CCC(c2ccc(Cl)cc2)CC1              212

Entry O=C(Cc1ccc(-c2ccc(OCCN3CCOCC3)cc2)cn1)NCc1ccccc1 — recorded Total Cell Count = 160

Entry Cc1cc(C)c(S(=O)(=O)N(Cc2ccc(-c3cccc(S(C)(=O)=O)c3)cc2)Cc2ccc(C(F)(F)F)o2)c(C)c1 — recorded Total Cell Count = 145
